Test system: Saccharomyces cerevisiae;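 also: PSI is a weighted mean of sequencing reads over stability bins, variants kept only with over 10 reads, mCherry proximal and sfGFP distal, peptide attached via GGGS linker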
assay_protocol: protein stability index of tFT-peptide fusion (C-terminal peptide) (PSI (0-1 scale)); higher = more stable (slower turnover)
condition_notes: genetic background: wild type; temperature: 30 C
quantity_measured: protein stability index

>>> measured_result("FLSLGVIARYFL")
0.633
>>> measured_result("LPILPQHQPTTD")
0.674
>>> measured_result("ILSDRVLRVGVK")
0.655
>>> measured_result("VRTHRVRARAVE")
0.685
>>> measured_result("PPRPRPPPSPYH")
0.667
>>> measured_result("PSPPDTDTPIPL")
0.691
>>> measured_result("SVAQHLRNGNMC")
0.745
>>> measured_result("PPPSYSPSLSLL")
0.631
>>> measured_result("HTKNCTRAVSDR")
0.673
>>> measured_result("LSAVISLRIQLS")
0.449
>>> measured_result("LLESTAHGKGIR")
0.683
>>> measured_result("VSLCYGGGFWGR")
0.698
>>> measured_result("PRSLPSFHPPFH")
0.658
>>> measured_result("VPTSLGAYLRMV")
0.511
>>> measured_result("IPDRSLFPWTGR")
0.661
>>> measured_result("LFPHPGPHHPSV")
0.716
>>> measured_result("LPPPRPGLPFTF")
0.704
>>> measured_result("GGCEWWSGGRGG")
0.733
>>> measured_result("VSGGGWDSCLSV")
0.724
